molecular target: SpHof1-3; test: SPOT peptide array binding signal intensity (averaged, normalized) (arbitrary units (background-subtracted, floor 0; scale differs between SH3 domains)); higher = stronger binding of the SH3 domain to the peptide
PARAMETER: SPOT peptide array binding signal intensity

## Input Using the record for "NILKRRPLKLEAPSK" , state its measured SPOT peptide array binding signal intensity.
## Output 699

## Input Using the record for "SSTPTTPERPKRKSG" , state its measured SPOT peptide array binding signal intensity.
## Output 177

## Input Using the record for "RRGPAPPPPPRASRP" , state its measured SPOT peptide array binding signal intensity.
## Output 420

## Input Using the record for "VKPRQLFPIPLNKVD" , state its measured SPOT peptide array binding signal intensity.
## Output 310

## Input Using the record for "AVPPPPPPPPLPESL" , state its measured SPOT peptide array binding signal intensity.
## Output ≤ 0

## Input Using the record for "DRIRMFIRFPKFLLE" , state its measured SPOT peptide array binding signal intensity.
## Output 1130

## Input Using the record for "PSPSSSPPPIPKTAN" , state its measured SPOT peptide array binding signal intensity.
## Output 0.5
